FYI, the data here is from PubChem BioAssay AID1963862.

Tested on: KRAS patient-derived spheroids with HUVEC/MSC, viability
Assay: Anticancer human tumor 941728-121-R-J1-PDC patient-derived lung adenocarcinoma cell line growth inhibition [KRAS2]
Conditions: second compound 0.1 µM; first compound 0.1 µM; stronger effect = lower value
Attribute: viability, T/C
observationType: viability, T/C (%)

1. CC(=O)OC12COC1CC(O)C1(C)C(=O)C(O)C3=C(C)C(OC(=O)C(O)C(NC(=O)OC(C)(C)C)c4ccccc4)CC(O)(C(OC(=O)c4ccccc4)C21)C3(C)C (stereo not given) + C=CC(=O)N1CCN(c2nc(=O)n(-c3c(C)ccnc3C(C)C)c3nc(-c4c(O)cccc4F)c(F)cc23)C(C)C1: 19.8
2. CC1COCCN1c1cc(-c2ccnn2C)c2ccnc(-c3ccn[nH]3)c2n1 (stereo not given) + C=CC(=O)N1CCN(c2nc(OCC3CCCN3C)nc3c2CCN(c2cccc4cccc(C)c24)C3)CC1CC#N: 19.9
3. COc1cc2nccc(Oc3ccc(NC(=O)C4(C(=O)Nc5ccc(F)cc5)CC4)cc3)c2cc1OC + COc1cc2nc(C)nc(NC(C)c3cc(N)cc(C(F)(F)F)c3)c2cc1OC1CCOC1: 55.2
4. CC1COCCN1c1cc(-c2ccnn2C)c2ccnc(-c3ccn[nH]3)c2n1 (stereo not given) + CC1OCC2(CCN(c3cnc(Sc4ccnc(N)c4Cl)c(N)n3)CC2)C1N: 27.2
5. O=C(c1cc(Cc2n[nH]c(=O)c3ccccc23)ccc1F)N1CCN(C(=O)C2CC2)CC1 + C=CC(=O)N1CCN(c2nc(OCC3CCCN3C)nc3c2CCN(c2cccc4cccc(C)c24)C3)CC1CC#N: 33.3
6. Cn1ncnc1[C@H]1c2n[nH]c(=O)c3cc(F)cc(c23)N[C@@H]1c1ccc(F)cc1 + CC1OCC2(CCN(c3cnc(Sc4ccnc(N)c4Cl)c(N)n3)CC2)C1N: 46.5
7. CC(C)n1nc(-c2ccc3oc(N)nc3c2)c2c(N)ncnc21 + C=CC(=O)N1CCN(c2nc(OCC3CCCN3C)nc3c2CCN(c2cccc4cccc(C)c24)C3)CC1CC#N: 12.5
8. O=C(c1cc(Cc2n[nH]c(=O)c3ccccc23)ccc1F)N1CCN(C(=O)C2CC2)CC1 + C=CC(=O)N1CCN(c2nc(=O)n(-c3c(C)ccnc3C(C)C)c3nc(-c4c(O)cccc4F)c(F)cc23)C(C)C1: 24.6
9. COc1cc(Nc2ncc3c(n2)-c2ccc(Cl)cc2C(c2c(F)cccc2OC)=NC3)ccc1C(=O)O + COc1cc2nc(C)nc(NC(C)c3cc(N)cc(C(F)(F)F)c3)c2cc1OC1CCOC1: 44.5
10. CC1(C)CCC(CN2CCN(c3ccc(C(=O)NS(=O)(=O)c4ccc(NCC5CCOCC5)c([N+](=O)[O-])c4)c(Oc4cnc5[nH]ccc5c4)c3)CC2)=C(c2ccc(Cl)cc2)C1 + CNCc1ccccc1-c1csc(C(C)Nc2nc(C)nc3cc(OC)c(OC)cc23)c1: 41.8

* * *

Test system: KRAS patient-derived spheroids with HUVEC/MSC, viability
Assay: Anticancer human tumor 941728-121-R-J1-PDC cell line growth inhibition [KRAS2];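 also: spheroids exposed to agents for seven days before readout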
Conditions: curve of first compound; second compound 0.1 µM
Attribute: IC50
observationType: IC50

1) CCN1CCN(Cc2ccc(Nc3ncc(F)c(-c4cc(F)c5nc(C)n(C(C)C)c5c4)n3)nc2)CC1 + C=CC(=O)N1CCN(c2nc(=O)n(-c3c(C)ccnc3C(C)C)c3nc(-c4c(O)cccc4F)c(F)cc23)C(C)C1: < 3.16 nM
2) CCN1CCN(Cc2ccc(Nc3ncc(F)c(-c4cc(F)c5nc(C)n(C(C)C)c5c4)n3)nc2)CC1 + CC1OCC2(CCN(c3cnc(Sc4ccnc(N)c4Cl)c(N)n3)CC2)C1N: < 3.16 nM
3) Cn1ncnc1[C@H]1c2n[nH]c(=O)c3cc(F)cc(c23)N[C@@H]1c1ccc(F)cc1 + C=CC(=O)N1CCN(c2nc(=O)n(-c3c(C)ccnc3C(C)C)c3nc(-c4c(O)cccc4F)c(F)cc23)C(C)C1: < 0.316 nM
4) COC(=O)c1ccc2c(C(=Nc3ccc(N(C)C(=O)CN4CCN(C)CC4)cc3)c3ccccc3)c(O)[nH]c2c1 + CNCc1ccccc1-c1csc(C(C)Nc2nc(C)nc3cc(OC)c(OC)cc23)c1: 1740 nM
5) CC(C)n1nc(-c2ccc3oc(N)nc3c2)c2c(N)ncnc21 + CNCc1ccccc1-c1csc(C(C)Nc2nc(C)nc3cc(OC)c(OC)cc23)c1: 0.668 nM
6) CC(=O)OC12COC1CC(O)C1(C)C(=O)C(O)C3=C(C)C(OC(=O)C(O)C(NC(=O)OC(C)(C)C)c4ccccc4)CC(O)(C(OC(=O)c4ccccc4)C21)C3(C)C (stereo not given) + CNCc1ccccc1-c1csc(C(C)Nc2nc(C)nc3cc(OC)c(OC)cc23)c1: < 10 nM
7) CC1COCCN1c1cc(-c2ccnn2C)c2ccnc(-c3ccn[nH]3)c2n1 (stereo not given) + C=CC(=O)N1CCN(c2nc(OCC3CCCN3C)nc3c2CCN(c2cccc4cccc(C)c24)C3)CC1CC#N: < 10 nM
8) COc1cc(Nc2ncc3c(n2)-c2ccc(Cl)cc2C(c2c(F)cccc2OC)=NC3)ccc1C(=O)O + CC1OCC2(CCN(c3cnc(Sc4ccnc(N)c4Cl)c(N)n3)CC2)C1N: 137 nM
9) Cn1nccc1Nc1nccc(-c2cc3c(s2)C(C)(C)N(CCN2CCOCC2)C3=O)n1 + C=CC(=O)N1CCN(c2nc(OCC3CCCN3C)nc3c2CCN(c2cccc4cccc(C)c24)C3)CC1CC#N: < 31.6 nM
10) Cn1nccc1Nc1nccc(-c2cc3c(s2)C(C)(C)N(CCN2CCOCC2)C3=O)n1 + CNCc1ccccc1-c1csc(C(C)Nc2nc(C)nc3cc(OC)c(OC)cc23)c1: 81.2 nM
11) CC1OCC2(CCN(c3cnc(Sc4ccnc(N)c4Cl)c(N)n3)CC2)C1N (stereo not given) + COc1cc2nc(C)nc(NC(C)c3cc(N)cc(C(F)(F)F)c3)c2cc1OC1CCOC1: < 31.6 nM
12) CC(=O)Nc1cccc(-n2c(=O)n(C3CC3)c(=O)c3c(Nc4ccc(I)cc4F)n(C)c(=O)c(C)c32)c1 + C=CC(=O)N1CCN(c2nc(OCC3CCCN3C)nc3c2CCN(c2cccc4cccc(C)c24)C3)CC1CC#N: < 0.1 nM
13) CN(C)C/C=C/C(=O)Nc1cc2c(Nc3ccc(F)c(Cl)c3)ncnc2cc1O[C@H]1CCOC1 + CNCc1ccccc1-c1csc(C(C)Nc2nc(C)nc3cc(OC)c(OC)cc23)c1: < 0.316 nM
14) CC1OCC2(CCN(c3cnc(Sc4ccnc(N)c4Cl)c(N)n3)CC2)C1N (stereo not given) + C=CC(=O)N1CCN(c2nc(=O)n(-c3c(C)ccnc3C(C)C)c3nc(-c4c(O)cccc4F)c(F)cc23)C(C)C1: < 31.6 nM
15) CN(C)C/C=C/C(=O)Nc1cc2c(Nc3ccc(F)c(Cl)c3)ncnc2cc1O[C@H]1CCOC1 + CC1OCC2(CCN(c3cnc(Sc4ccnc(N)c4Cl)c(N)n3)CC2)C1N: < 0.316 nM

* * *

Test system: KRAS patient-derived spheroids with HUVEC/MSC, viability
Assay: Anticancer human tumor 941728-121-R-J1-PDC cell line growth inhibition [KRAS2];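 also: spheroids exposed to agents for seven days before readout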
Details: second compound 10 µM; first compound 1 µM; stronger effect = lower value
observationType: viability, T/C (%)

1) CCN1CCN(Cc2ccc(Nc3ncc(F)c(-c4cc(F)c5nc(C)n(C(C)C)c5c4)n3)nc2)CC1 + COc1cc2nc(C)nc(NC(C)c3cc(N)cc(C(F)(F)F)c3)c2cc1OC1CCOC1: 0.85
2) CC(C)NCC(C(=O)N1CCN(c2ncnc3c2C(C)CC3O)CC1)c1ccc(Cl)cc1 (stereo not given) + CNCc1ccccc1-c1csc(C(C)Nc2nc(C)nc3cc(OC)c(OC)cc23)c1: 1.66
3) COC(=O)c1ccc2c(C(=Nc3ccc(N(C)C(=O)CN4CCN(C)CC4)cc3)c3ccccc3)c(O)[nH]c2c1 + CNCc1ccccc1-c1csc(C(C)Nc2nc(C)nc3cc(OC)c(OC)cc23)c1: 0.1
4) CC(C)NCC(C(=O)N1CCN(c2ncnc3c2C(C)CC3O)CC1)c1ccc(Cl)cc1 (stereo not given) + COc1cc2nc(C)nc(NC(C)c3cc(N)cc(C(F)(F)F)c3)c2cc1OC1CCOC1: 1.04
5) COC(=O)c1ccc2c(C(=Nc3ccc(N(C)C(=O)CN4CCN(C)CC4)cc3)c3ccccc3)c(O)[nH]c2c1 + C=CC(=O)N1CCN(c2nc(=O)n(-c3c(C)ccnc3C(C)C)c3nc(-c4c(O)cccc4F)c(F)cc23)C(C)C1: 29.6
6) COc1cc2nccc(Oc3ccc(NC(=O)C4(C(=O)Nc5ccc(F)cc5)CC4)cc3)c2cc1OC + CC1OCC2(CCN(c3cnc(Sc4ccnc(N)c4Cl)c(N)n3)CC2)C1N: 8.99
7) COc1cc(Nc2ncc3c(n2)-c2ccc(Cl)cc2C(c2c(F)cccc2OC)=NC3)ccc1C(=O)O + CNCc1ccccc1-c1csc(C(C)Nc2nc(C)nc3cc(OC)c(OC)cc23)c1: 0.1
8) COc1cc2nccc(Oc3ccc(NC(=O)C4(C(=O)Nc5ccc(F)cc5)CC4)cc3)c2cc1OC + CNCc1ccccc1-c1csc(C(C)Nc2nc(C)nc3cc(OC)c(OC)cc23)c1: 0.08
9) CC1(C)CCC(CN2CCN(c3ccc(C(=O)NS(=O)(=O)c4ccc(NCC5CCOCC5)c([N+](=O)[O-])c4)c(Oc4cnc5[nH]ccc5c4)c3)CC2)=C(c2ccc(Cl)cc2)C1 + CNCc1ccccc1-c1csc(C(C)Nc2nc(C)nc3cc(OC)c(OC)cc23)c1: 0.33
10) COc1cc2nccc(Oc3ccc(NC(=O)C4(C(=O)Nc5ccc(F)cc5)CC4)cc3)c2cc1OC + COc1cc2nc(C)nc(NC(C)c3cc(N)cc(C(F)(F)F)c3)c2cc1OC1CCOC1: 0.25
11) CC1COCCN1c1cc(-c2ccnn2C)c2ccnc(-c3ccn[nH]3)c2n1 (stereo not given) + C=CC(=O)N1CCN(c2nc(=O)n(-c3c(C)ccnc3C(C)C)c3nc(-c4c(O)cccc4F)c(F)cc23)C(C)C1: 25.4
12) CCNC(=O)CC1N=C(c2ccc(Cl)cc2)c2cc(OC)ccc2-n2c(C)nnc21 (stereo not given) + COc1cc2nc(C)nc(NC(C)c3cc(N)cc(C(F)(F)F)c3)c2cc1OC1CCOC1: 3.3
13) O=C(c1cc(Cc2n[nH]c(=O)c3ccccc23)ccc1F)N1CCN(C(=O)C2CC2)CC1 + CC1OCC2(CCN(c3cnc(Sc4ccnc(N)c4Cl)c(N)n3)CC2)C1N: 28.5
14) COc1cc2nccc(Oc3ccc(NC(=O)C4(C(=O)Nc5ccc(F)cc5)CC4)cc3)c2cc1OC + C=CC(=O)N1CCN(c2nc(=O)n(-c3c(C)ccnc3C(C)C)c3nc(-c4c(O)cccc4F)c(F)cc23)C(C)C1: 13
15) CC1OCC2(CCN(c3cnc(Sc4ccnc(N)c4Cl)c(N)n3)CC2)C1N (stereo not given) + C=CC(=O)N1CCN(c2nc(=O)n(-c3c(C)ccnc3C(C)C)c3nc(-c4c(O)cccc4F)c(F)cc23)C(C)C1: 26.8
